target: T1, rat LDLa-linker protein (ratRXFP2-LDLa-linker(20-88)) (Rattus norvegicus, UniProt Q5ECL0); assay: SPR; Biacore S200; goat anti-rat Fc gamma immobilised on a Series S CM5 chip, purified recombinant rat anti-RXFP2 antibodies captured at 5 µg/mL; rat or human LDLa-linker protein flowed as analyte at 20, 10, 5, 2.5, 1.75 and 0 nM; 1:1 fit model; settings: both partners purified
T1 construct: relaxin family peptide receptor 2 (RXFP2), rat, LDLa module and linker, residues 20-88; Expressed as LDLa-linker, enterokinase site, rat Fc, 8xHis; The Biacore methods say only 'LDLa-linker protein'; also called rat LDLa-linker domain; source: Expi293, transfected, purified (Histrap excel, SEC); enterokinase digestion, Hispur Ni resin, Superdex 200; not shown: rat Fc, C-terminal, cleaved; 8xHis, …
T1 sequence (Q5ECL0 entry or part of it): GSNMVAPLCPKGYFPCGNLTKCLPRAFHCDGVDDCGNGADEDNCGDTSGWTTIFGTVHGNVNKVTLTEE
ATTRIBUTE MEASURED: Kd (nM)
Report as a plain number; the unit nM is understood.

Kd for RXFP2 mAb 4F6 (antibody, V domains shown, heavy chain variable domain; rat IgG2b heavy chain constant region (rat IgG2b backbone, in-house construct); Recombinant in a rat IgG2b backbone; found as a mouse hybridoma clone; source: Expi293, transfected, purified (Protein G)) VH: EVQLQQSGPELVKPGASVKMSCKASGYTFTNYVLHWVKQKPGQGLEWIGYINPYNDGSKYNEKFKGRATLTSDKSSSTAYMELSSLTSEDSAVYYCARGGWLLDYFDYWGQGTTLTVSS VL: DVLMTQSPLSLPVSLGEQASISCRSSQSIVHSDGDTYLEWYLQKPGQSPNLLIYKVSNRFSGVPDRFSGSGSGTDFTLKISRVEAEDLGVYYCFQGSHVPPTFGGGTKLEIK is 1.7

Kd for RXFP2 mAb 4B8 (antibody, V domains shown, heavy chain variable domain; rat IgG2b heavy chain constant region (rat IgG2b backbone, in-house construct); Recombinant in a rat IgG2b backbone; found as a mouse hybridoma clone; source: Expi293, transfected, purified (Protein G)) VH: QVQLKQSGPGLVQPSQSLSITCTVSGFSLSRYGVHWVRQSPGKGLEWLGVIWSGGSTEYNAVFKSRLSISKDNSKSQVFFKMNSLQANDTAIYYCVRADGYYAMEYWGQGTSVTVSS VL: DIQMTQSPASLSVSVGETVTITCRASENIYSNLAWYQQKQGKSPQLLVYAVTNLADGVPSRFSGSGSGTQYSLKINSLQSEDFGNYYCQHFWGTPYTFGGGTKLEIK is 0.55

Kd for RXFP2 mAb 4H1 (antibody, V domains shown, heavy chain variable domain; rat IgG2b heavy chain constant region (rat IgG2b backbone, in-house construct); Recombinant in a rat IgG2b backbone; found as a mouse hybridoma clone; source: Expi293, transfected, purified (Protein G)) VH: QIQLVQSGPELKKPGETVKISCKTSGYTFTKYPMHWVKQAPGEGLKWMGWINTYSGLPTFADDFKGRFAFSLETSANTADLQINNLKNEDMATYFCAREGKKLSGYFDYWGQGTTLTVSS VL: DIKMTQSPSSMYASLGERVTITCKASQDINSYLTWFQQKPGQSPKTLIYRANRFVDGVPSRFSGSGSGQDYSLTITSLEYEDMGIYYCLQYDEFPYTFGGGTQLEIK is 1.01

Kd for RXFP2 mAb 4H2 (antibody, V domains shown, heavy chain variable domain; rat IgG2b heavy chain constant region (rat IgG2b backbone, in-house construct); Recombinant in a rat IgG2b backbone; found as a mouse hybridoma clone; source: Expi293, transfected, purified (Protein G)) VH: QVQLRQSGPSLVQPSQSLSITCTVSGFSLTNYGVHWVRQSPGKGLEWLGVIWRGGNTDHNAAFMSRLSITKDNSESQVFFKMNSLQVDDTAIYYCAKAEGYYALDYWGQGTSVTVYS VL: DIQMTQSPASLSVSVGETVTITCRASENIYSNLAWYQQKQGKSPQLLVYAVTNLADGVPSRFSGSGSGTQYSLKINSLQSEDFGSYYCQHFWGTPWTFGGGTKLEIK is 0.32
